# system-under-test: Chk2 (Homo sapiens, UniProt O96017)
# Construct: GST
# Sequence (O96017 whole entry): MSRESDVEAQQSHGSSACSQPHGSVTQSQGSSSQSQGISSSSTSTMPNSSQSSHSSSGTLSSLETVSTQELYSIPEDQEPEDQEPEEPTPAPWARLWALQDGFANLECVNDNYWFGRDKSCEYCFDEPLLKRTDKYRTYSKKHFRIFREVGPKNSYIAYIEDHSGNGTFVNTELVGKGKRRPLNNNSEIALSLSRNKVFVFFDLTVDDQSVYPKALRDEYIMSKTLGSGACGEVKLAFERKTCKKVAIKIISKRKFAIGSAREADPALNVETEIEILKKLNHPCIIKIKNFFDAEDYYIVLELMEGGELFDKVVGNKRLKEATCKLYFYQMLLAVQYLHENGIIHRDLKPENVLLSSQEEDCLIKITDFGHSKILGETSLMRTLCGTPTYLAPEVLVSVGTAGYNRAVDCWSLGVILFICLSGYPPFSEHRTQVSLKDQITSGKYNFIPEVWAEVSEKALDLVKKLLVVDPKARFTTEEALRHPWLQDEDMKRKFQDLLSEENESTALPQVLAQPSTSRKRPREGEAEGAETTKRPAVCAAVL
# protocol-notes: In vitro kinase assay with recombinant Chk2 (MBP phosphorylation, [γ-33P]ATP)
# experimental-context: recombinant human GST-Chk2 10 nM, 25 μM MBP, 100 μM ATP, 30 min at 24° C.; read-out: The enzymatic IC50 values of compounds against Chk2
pIC50: −log10 of the molar value.

compound	pIC50
N=C(NCC1CCCCC1)c1c(O)nsc1Nc1ccc(Nc2ccccc2)cc1	5.70 to 6.00
CC(C)NC(=N)c1c(O)nsc1Nc1ccc(Nc2ccccc2)cc1	6.30 to 9.00
N=C(NCC1CCCCC1)c1c(O)nsc1Nc1ccc(Nc2ccc(Br)cc2)cc1	6.30 to 9.00
N=C(NCCO)c1c(O)nsc1Nc1ccc(Nc2ccccc2)cc1	6.00 to 6.30
N=C(NCC(O)CO)c1c(O)nsc1Nc1ccc(Nc2ccccc2)cc1 (centres unmarked)	6.00 to 6.30
